Can you tell me TLR8 100 nM for the items I'm about to list?
Molecular target: TLR8 (Homo sapiens)
Sequence (Q9NR97 27-1041): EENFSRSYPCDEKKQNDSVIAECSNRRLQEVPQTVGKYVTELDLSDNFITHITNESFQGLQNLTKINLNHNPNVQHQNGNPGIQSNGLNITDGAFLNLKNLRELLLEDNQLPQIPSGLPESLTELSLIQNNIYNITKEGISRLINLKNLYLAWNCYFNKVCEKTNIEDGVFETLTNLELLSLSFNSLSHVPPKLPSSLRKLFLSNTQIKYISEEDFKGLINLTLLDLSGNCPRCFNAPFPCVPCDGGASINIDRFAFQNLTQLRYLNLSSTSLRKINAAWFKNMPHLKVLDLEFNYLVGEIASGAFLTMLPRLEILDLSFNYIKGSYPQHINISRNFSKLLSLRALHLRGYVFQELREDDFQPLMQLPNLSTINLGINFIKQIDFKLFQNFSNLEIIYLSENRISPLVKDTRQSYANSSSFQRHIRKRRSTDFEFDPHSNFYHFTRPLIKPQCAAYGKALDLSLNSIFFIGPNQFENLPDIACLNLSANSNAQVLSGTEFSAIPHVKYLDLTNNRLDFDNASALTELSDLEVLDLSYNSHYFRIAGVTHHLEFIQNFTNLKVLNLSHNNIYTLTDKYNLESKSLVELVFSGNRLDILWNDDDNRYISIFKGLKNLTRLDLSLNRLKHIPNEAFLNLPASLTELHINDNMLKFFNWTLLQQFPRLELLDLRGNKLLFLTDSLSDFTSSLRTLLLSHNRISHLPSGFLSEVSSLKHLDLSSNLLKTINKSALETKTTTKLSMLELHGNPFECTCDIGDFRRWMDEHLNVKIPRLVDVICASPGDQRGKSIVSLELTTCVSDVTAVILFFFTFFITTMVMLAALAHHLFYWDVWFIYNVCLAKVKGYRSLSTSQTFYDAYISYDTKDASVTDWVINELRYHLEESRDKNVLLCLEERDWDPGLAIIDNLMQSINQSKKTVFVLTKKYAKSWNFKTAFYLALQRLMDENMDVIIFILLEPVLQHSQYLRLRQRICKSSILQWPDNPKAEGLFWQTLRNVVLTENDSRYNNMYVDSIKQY
Assay: HEK-TLR8 NF-κB-luciferase reporter, R848 or Motolimod stimulation (potentiation or inhibition)
Format: cell-based
Parameters: expressed in transfected cells; host or cells: 293XLhTLR8 (HEK293)
Conditions: MOE-modified ASO at 100 nM; averaged NF-κB-Luciferase relative to R848 condition (fold increase)
Experimental: In such examples, potentiation of TLR8 activity can be identified by observation of an overall increased TLR8 response of the cell population, or a higher proportion of cells having TLR8-positive activity as compared to a negative control condition in which cells are treated with TLR8 agonist in the absence of the oligonucleotide (or in the presence of an appropriate control non-potentiating agent). […] TLR8 activity can also be analysed by measuring cytokine levels, for example by ELISA. […]
API note: the answer field is a bare number with no unit suffix.

IN: Quick check: TLR8 100 nM of GATGGCCTCCCATCTCCTTC (antisense; 2'-MOE modified, pattern not given here) [HPRT-329 MOE] ?
OUT: 0.979

IN: Quick check: TLR8 100 nM of GGTCCATACCCAAGGCATCC (antisense; 2'-MOE modified, pattern not given here) [CTNN2B-2446 MOE] ?
OUT: 1.901

IN: Quick check: TLR8 100 nM of GGAGCTTCGAGGCCCCAGGC (MOE modified, pattern not given here) [MB21D1-616 MOE] ?
OUT: 0.760

IN: Quick check: TLR8 100 nM of CGGAGGTCTTGGCTTCGTGG (antisense; 2'-MOE modified, pattern not given here) [MB21D1-525 MOE] ?
OUT: 2.197

IN: Quick check: TLR8 100 nM of GCTTCAGGCGCTGCCTTGCC (antisense; 2'-MOE modified, pattern not given here) [CAMSAP1-2709 MOE] ?
OUT: 0.985

IN: Quick check: TLR8 100 nM of GTCCTTGCACGTGGCTTCGT (antisense; 2'-MOE modified, pattern not given here) [EGFR-1013 MOE] ?
OUT: 1.900

IN: Quick check: TLR8 100 nM of GTGTCCTTGCACGTGGCTTC (antisense; 2'-MOE modified, pattern not given here) [EGFR-1015 MOE] ?
OUT: 1.383

IN: Quick check: TLR8 100 nM of GGGAAAGGTTATGCAAGGTC (antisense; 2'-MOE modified, pattern not given here) [CTNN2B-916 MOE] ?
OUT: 3.117

IN: Quick check: TLR8 100 nM of ACACTTCGTGGGGTCCTTTT (antisense; 2'-MOE modified, pattern not given here) [HPRT-663 MOE] ?
OUT: 4.778

IN: Quick check: TLR8 100 nM of ATGTCCCCTGTTGACTGGTC (antisense; 2'-MOE modified, pattern not given here) [HPRT-489 MOE] ?
OUT: 1.752

IN: Quick check: TLR8 100 nM of ACTGACTGTCTTGAGGGTTC (antisense; 2'-MOE modified, pattern not given here) [MB21D1-1483 MOE] ?
OUT: 2.454

IN: Quick check: TLR8 100 nM of ATCCAACACTTCGTGGGGTC (antisense; 2'-MOE modified, pattern not given here) [HPRT-668 MOE] ?
OUT: 1.437

IN: Quick check: TLR8 100 nM of GTGTCTTCATCGGCCCTGCC (antisense; 2'-MOE modified, pattern not given here) [CAMSAP1-2113 MOE] ?
OUT: 1.247

IN: Quick check: TLR8 100 nM of TGGGCTGGAATCCGAGTTAT (antisense; 2'-MOE modified, pattern not given here) [EGFR-4705 MOE] ?
OUT: 1.452

IN: Quick check: TLR8 100 nM of GCCCATCCATGAGGTCCTGG (antisense; 2'-MOE modified, pattern not given here) [CTNN2B-2545 MOE] ?
OUT: 0.899

IN: Quick check: TLR8 100 nM of TTGCCATGCTGGCTCGGACT (antisense; 2'-MOE modified, pattern not given here) [CAMSAP1-2584 MOE] ?
OUT: 0.881

IN: Quick check: TLR8 100 nM of GAGTCTCTGGAGCTTCCTCT (antisense; 2'-MOE modified, pattern not given here) [CAMSAP1-2456 MOE] ?
OUT: 0.849

IN: Quick check: TLR8 100 nM of ACAACCCCTTTCACCATCCC (antisense; 2'-MOE modified, pattern not given here) [MB21D1-689 MOE] ?
OUT: 8.841

IN: Quick check: TLR8 100 nM of GATGCTCCTCGGTCTCCCTT (antisense; 2'-MOE modified, pattern not given here) [CAMSAP1-1850 MOE] ?
OUT: 1.392

----------
Target: human TLR7 (Homo sapiens, UniProt Q9NYK1)
Construct: HA; host or cells: 293XL-hTLR7-HA (HEK293)
Sequence (Q9NYK1 27-1049): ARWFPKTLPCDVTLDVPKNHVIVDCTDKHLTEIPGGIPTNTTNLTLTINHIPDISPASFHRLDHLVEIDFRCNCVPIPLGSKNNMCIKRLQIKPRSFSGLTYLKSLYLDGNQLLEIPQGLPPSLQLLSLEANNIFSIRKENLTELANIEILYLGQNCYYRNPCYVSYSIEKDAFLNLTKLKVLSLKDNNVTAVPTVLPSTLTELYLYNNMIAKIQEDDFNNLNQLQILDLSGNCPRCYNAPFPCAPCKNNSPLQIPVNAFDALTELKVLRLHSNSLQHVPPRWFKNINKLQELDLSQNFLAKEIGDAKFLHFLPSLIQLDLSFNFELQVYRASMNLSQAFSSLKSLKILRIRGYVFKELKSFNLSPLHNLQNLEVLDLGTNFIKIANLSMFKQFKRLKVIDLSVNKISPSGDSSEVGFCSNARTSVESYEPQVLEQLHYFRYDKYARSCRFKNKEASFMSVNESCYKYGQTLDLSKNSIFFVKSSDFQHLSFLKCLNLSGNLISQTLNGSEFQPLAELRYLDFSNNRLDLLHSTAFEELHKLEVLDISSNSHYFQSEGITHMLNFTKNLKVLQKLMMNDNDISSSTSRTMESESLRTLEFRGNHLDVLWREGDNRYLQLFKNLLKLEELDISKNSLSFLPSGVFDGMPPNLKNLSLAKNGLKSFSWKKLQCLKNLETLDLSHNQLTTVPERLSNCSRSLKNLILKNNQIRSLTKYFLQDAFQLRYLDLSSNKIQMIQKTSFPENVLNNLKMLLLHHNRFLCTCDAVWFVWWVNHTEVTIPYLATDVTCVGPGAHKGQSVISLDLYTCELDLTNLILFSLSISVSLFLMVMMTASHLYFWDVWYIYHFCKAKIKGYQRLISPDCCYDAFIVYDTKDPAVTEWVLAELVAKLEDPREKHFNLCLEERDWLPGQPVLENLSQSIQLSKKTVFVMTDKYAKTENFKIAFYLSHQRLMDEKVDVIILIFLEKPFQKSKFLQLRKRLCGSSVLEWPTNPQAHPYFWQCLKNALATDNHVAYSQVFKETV
Test: HEK-TLR7 NF-κB-luciferase reporter, R848 stimulation
Assay type: cell-based
Conditions: MOE-modified ASO at 500 nM; averaged NF-κB-Luciferase relative to R848 condition
Readout Label: TLR7 500 nM
API note: the answer field is a bare number with no unit suffix.

IN: Quick check: TLR7 500 nM of TGTCCTTGCACGTGGCTTCG (antisense; 2'-MOE modified, pattern not given here) [EGFR-1014 MOE] ?
OUT: 0.057

IN: Quick check: TLR7 500 nM of GTCCACATCCTGTGGCTCGT (antisense; 2'-MOE modified, pattern not given here) [CAMSAP1-2906 MOE] ?
OUT: 0.119

IN: Quick check: TLR7 500 nM of GTCTTGGCTTCGTGGAGCAG (antisense; 2'-MOE modified, pattern not given here) [MB21D1-520 MOE] ?
OUT: 0.095

IN: Quick check: TLR7 500 nM of GTCCAAGATCAGCAGTCTCA (antisense; 2'-MOE modified, pattern not given here) [CTNN2B-2341 MOE] ?
OUT: 0.120

IN: Quick check: TLR7 500 nM of CGTGTCTGGAAGCTTCCTTT (antisense; 2'-MOE modified, pattern not given here) [CTNN2B-808 MOE] ?
OUT: 0.350

IN: Quick check: TLR7 500 nM of ACAGTGTTGAGATACTCGGG (antisense; 2'-MOE modified, pattern not given here) [EGFR-3652 MOE] ?
OUT: 0.129

IN: Quick check: TLR7 500 nM of GAACCACGTCTGCTCTAACA (antisense; 2'-MOE modified, pattern not given here) [CAMSAP1-1635 MOE] ?
OUT: 0.291

IN: Quick check: TLR7 500 nM of GCGGAGGTCTTGGCTTCGTG (antisense; 2'-MOE modified, pattern not given here) [MB21D1-526 MOE] ?
OUT: 0.154

IN: Quick check: TLR7 500 nM of GCGACTATACGCGCAATATG (antisense; 2'-MOE modified, pattern not given here) [NC5 2′MOE] ?
OUT: 0.294

IN: Quick check: TLR7 500 nM of GAGGTCTTGGCTTCGTGGAG (antisense; 2'-MOE modified, pattern not given here) [MB21D1-523 MOE] ?
OUT: 0.095

IN: Quick check: TLR7 500 nM of GTGTCCTTGCACGTGGCTTC (antisense; 2'-MOE modified, pattern not given here) [EGFR-1015 MOE] ?
OUT: 0.212

IN: Quick check: TLR7 500 nM of GCCCATCCATGAGGTCCTGG (antisense; 2'-MOE modified, pattern not given here) [CTNN2B-2545 MOE] ?
OUT: 0.124

IN: Quick check: TLR7 500 nM of ATGTCCCCTGTTGACTGGTC (antisense; 2'-MOE modified, pattern not given here) [HPRT-489 MOE] ?
OUT: 0.224

IN: Quick check: TLR7 500 nM of TTGCACACTTCGTACCCAAA (antisense; 2'-MOE modified, pattern not given here) [CAMSAP1-4915 MOE] ?
OUT: 0.233

IN: Quick check: TLR7 500 nM of TCGCACTTCAGTCTGAGCAG (antisense; 2'-MOE modified, pattern not given here) [MB21D1-719 MOE] ?
OUT: 0.241

IN: Quick check: TLR7 500 nM of GGTGGTCCACAACCCCTTTC (antisense; 2'-MOE modified, pattern not given here) [MB21D1-697 MOE] ?
OUT: 0.097
